- assay: adipocyte viability effects, profiling panel, cell-based, 3T3-L1 adipocytes, calcein-AM fluorescence, 48 h, basal (AID 1163); note: test concentration not given here
- run.parameters: 3T3-L1 adipocytes viability, higher = more signal
value.type: z-score
Lab note: record the figure alone, no unit after it.

Recorded z-score, per entry:
{"compound": "CC(C)[Si](C#CCCCC#N)(O[C@H](c1ccccc1)c1cn([C@H](CO)Cc2ccccc2)nn1)C(C)C", "z-score": -0.0379}
{"compound": "CC(=O)c1ccc(C(O)C2C=CC3C(=O)N(c4ccccc4)C(=O)C3N2Nc2ccc(C#N)cc2)cc1 (configuration not stated)", "z-score": -0.292}
{"compound": "CN1C(=O)C2C=CC(C(O)c3ccccn3)N(N(c3ccccc3)c3ccccc3)C2C1=O (configuration not stated)", "z-score": -1.63}

Moving on to the next compound.
The recorded z-score for entry "COCCOC(=O)N1C(=O)[C@@]2(c3cc(C#CC4=CCCCC4)ccc31)[C@H](c1ccccc1OCCO)N1[C@H](c3ccccc3)[C@H](c3ccccc3)OC(=O)[C@H]1[C@@H]2C(=O)Nc1nc2ccccc2s1" equals 0.764
